- System: K4 kissing-loop RNA reporter
- ASSAY_DETAILS: apparent KD of K4 kissing-loop reporter; higher = weaker reporter binding
- MEASUREMENT_SETUP: Eterna round: R107; input ligand: FMN 200 uM
Would you please tag the item 1 (yes) when its apparent KD of K4 kissing-loop reporter is 0.2 µM or above, and 0 (no) when it is below?

Take a look at these entries with their results.
PRIMARY_SEQUENCE	CLASS_LABEL
CGAGUGAUGUUCGUUCGUUUAUUUCGGUGACAGGAUAUGCGGAAACGCAGAAGGGUCACCUUUGGGUUACCGGAAUUAACGUUAU [Ex FMN A 30]	1 (yes)
AACUUAAUUUAUAAGCAGUGAUGUUGCUCACGAGGACCGGUACGGCCGCCACUCGAUCGGACUUAGGUCUUCAAUUAUUUCUUAA [JR_ExcTryptoA_Sub018]	0 (no)
UGCACGGGCUCGGCCGCCACUCCCGCGGGUCGAAAGGUCCGCUACUGAGUGAUGUUCGGUUGGAGGAGGACCGGGAGCCCGUGCA [#2 Exclusion - Tryptophan B Attempt #24 (HarryS)]	0 (no)
GGGUGGCAGGCGGCCGCCACUCUGAGCAGCCAGUGAGUGAUGUUCGUGGCGGAAGAAUGUUCGUAGAGGACCGGGUUUGUUGUUC [Same State Tryptophan B GF 22]	1 (yes)
GAUUCAGUGAUGUUGGAAGGCGAGCGGGAUACCAGCCAAGACUCAGGCCCUUGGCAGCCCACAUAUCCCACGUAGAUAGUAGCUC [Same State - Theophylline A (Freestyle 13)]	1 (yes)
UGAUACCAGACUGAUACCAGCCAGUGAUGUUGGCUAAGCCGAAGAGGUGUCAAAGACACCGGCCCUUGGCAGCAGUCUGGUAUCU [#06 K4 Theophylline B Exclusion]	0 (no)
AAAUAAUAAAUGCAGCCAGUGAUGUUGGAAGGAGCGUGCGAAAGCACAGGUAGGUCGCCAACCAAAGCUGGAAACAGCAACUGCA [#SwitchBubble 3 #K4Early]	1 (yes)
UGACUGGAUGGAAGGAGCGCUAAACUCCUAGUGAUGUUAGGGAAAUGAGACAAAGUCUCAAGGCAGGUAGGUCGCCAUCUAGUCU [FiskerMod 16 - Jieux - Same State - Arginine B]	0 (no)

Q: Decide: is the reported value of apparent KD of K4 kissing-loop reporter for GCUGAGGAGUGAUGUUCCAAGUGAUGUUAACGAGGACCGGUACGGCCGCCACUCGAUACGGCCGGACCGUAAGAUAAACUACAGC [Same State - Tryptophan A (Freestyle 7)] equal to or greater than 0.2 µM?
Ans: 1 (yes)

Q: Decide: is the reported value of apparent KD of K4 kissing-loop reporter for AAUACGAAGCAGUGAUGUUGCUUAUGAGAAGGAGCGCACGAAAGUGCAGGUAGGUCGCUCAGCCAUGUGGACGAAAACGUCCACA [whbob_SS_Arginine_A_sa109] equal to or greater than 0.2 µM?
Ans: 0 (no)

----------
- Tested on: K4 kissing-loop RNA reporter;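 further: bound reporter read as fluorescence of individual clusters on recovered sequencing chips by microscopy, with normalized cluster intensities fitted with a binding model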
- ASSAY_DETAILS: apparent KD of K4 kissing-loop reporter; higher = weaker reporter binding
- MEASUREMENT_SETUP: Eterna round: R107; input ligand: theophylline 20 uM
Would you please tag the item fulfilled when its apparent KD of K4 kissing-loop reporter is 400 nM or above, and not fulfilled when it is below?

Q: Decide: is the reported value of apparent KD of K4 kissing-loop reporter for GCUAUGGUAGGAAGGAGCGCUUACUCGGUAAUAAGAGUGAUGUUCGAUACCGAGUAUUUAUAGCAGGUAGGUCGCCUACUAUAGC [Arginine B K4 5] equal to or greater than 400 nM?
Ans: not fulfilled

Q: Decide: is the reported value of apparent KD of K4 kissing-loop reporter for UGUAAGCGCGUAGAUACCAGCAGACGAGUGAUGUUCAAAAGAUUAAGGAAAAGAAAGUAAUGCCCUUGGCAGCUAAUCAUAAGCG [whbob_Ex_Theo_B_sa92] equal to or greater than 400 nM?
Ans: fulfilled

Q: Decide: is the reported value of apparent KD of K4 kissing-loop reporter for GCCGUACGCAUGGAUACCAGUCUACAUCGCAGUGAUGUUGCGUAGUUCAGAUAGAUUGCCGACCCUUGGCAGCCAUGCGUACGGC equal to or greater than 400 nM?
Ans: not fulfilled

Q: Decide: is the reported value of apparent KD of K4 kissing-loop reporter for UGACUGGACUGAAGGAGCGCUUAACUCCUAGUGAUGUUAGGAUAACGAGACAAAGUCUCGAAGCAGGUAGGUCGCAGUCUAGUCU equal to or greater than 400 nM?
Ans: not fulfilled

Q: Decide: is the reported value of apparent KD of K4 kissing-loop reporter for UGGACCUGACUCGAUAAGAGUCAAUGAGAUACCAGCCACGAAAGUGGCCCUUGGCAGCUCUGCCAGUGAUGUUGGUCAAGGUCCU [#SwitchBubble 5 #StaticStem] equal to or greater than 400 nM?
Ans: fulfilled

----------
Exercise: state measured apparent KD of MS2 coat protein for each of the sequences provided.
- Tested on: MS2 coat protein
- ASSAY_DETAILS: apparent KD of MS2 coat protein; designed switch direction (-1 OFF switch, 1 ON switch): 1; higher = weaker reporter binding
- MEASUREMENT_SETUP: Eterna round: R95; input ligand: microRNA oligo, concentration not stated
I'd appreciate it if you wrote the number followed by its unit.

The following sequences have reported results that may help.
PRIMARY_SEQUENCE	apparent KD of MS2 coat protein
UCUUGGUUUUUGCUCGUUUUUUGUGUUGAACAUGAGGAUCACCCAUGUAUUGUACGGUCCAAUUUGGUGGUAGUCCG [JMF 68] (puzzle: Sensor for hsa-mir-208a)	29.6 nM
GUGUGUUGCGGGCAGGAUAUGUACUUGAGUACAUGAGGAUCACCCAUGUGCGGGUGUUUCACCCGACAGAAGGGCCUAUCGCGAC [JL-ss2-3.25 ViennaUCT mod] (puzzle: Same State 2)	136 nM
CUAUCUACAGGUGUCAGUGCUCGUCUUAUACAUGAGGAUCACCCAUGUUAUAGCCCGGUGCUUGCGCUGGGCUGAUU [JL ViennaUCT Tearor mod 4] (puzzle: Sensor for hsa-mir-208a)	14.2 nM
CCGCGCUGUCGAGAGGAUAUGCGGUGAUGGACAUGAGGAUCACCCAUGUUAGCGAUAGCAUUACUGUAGAAGGCUCUACGGCGGC [JL-ss2-3.09 ViennaUCT mod] (puzzle: Same State 2)	10.4 nM
GUGGCCUAGGCACAGGAUAUGUUUCUCGUAACAUGAGGAUCACCCAUGUGCCUUUGAGAUUUUAUGCAGAAGGGUGCACGCCACG [JL Atiinbe mod 04] (puzzle: Same State 2)	273 nM
GGAGCCGGCACCGAGGAUAUUCAUAUUAAAACAUGAGGAUCACCCAUGUAGGCCAGAAGGCUUUGGGAGAAGGCGGAUCGGCUCG [Xeonanis - 3] (puzzle: Same State 2)	310 nM
UAAAUACAUGAGGAUCACCCAUGUCAAAAGACAUGAGGAUAUGUACAGACUUCGGUCUGUACAGAAGGCAUGAAUA [salish99_ss1_r3_096] (puzzle: Same State 1)	294 nM
GAGGAACAUGAGGAUCACCCAUGUAGGAUGGGACAAGGAUAUGUAGAUAGCGGAGGAGAGACAGAAGGUGUAGGAA [JR_SS1_Sub053] (puzzle: Same State 1)	431 nM
GGUAUACAUGAGGAUCACCCAUGUCGUAUGACAUGAGGAUAUGUACAGACUUCGGUCUGUACAGAAGGCGUGUGUC [SS1 - 1011 Omei Mod 6] (puzzle: Same State 1)	307 nM
AGAGCCGGCACUGAGGAUAUUCAUAAUAAAACAUGAGGAUCACCCAUGUAGGCCAGAAGGCCUUGGGAGAAGGCAGGUCGGCUCG [Mat - Same State 2 - Mod of UCT - D68] (puzzle: Same State 2)	122 nM

Now for another entry.
Q: Which measured apparent KD of MS2 coat protein value corresponds to UCAAGCGUUUGGCUCGUCUUAUGUUUGGUACAUGAGGAUCACCCAUGUUAGGGACGAUCCAGUUAGAUGGAAUUUUG [JR_SHM208A_Sub036] (puzzle: Sensor for hsa-mir-208a) ?
Ans: 637 nM

----------
Exercise: state measured apparent KD of MS2 coat protein for each of the sequences provided.
- Tested on: MS2 coat protein
- ASSAY_DETAILS: apparent KD of MS2 coat protein; designed switch direction (-1 OFF switch, 1 ON switch): -1; higher = weaker reporter binding
- MEASUREMENT_SETUP: input ligand: none
Numbers only, in nM.

The following sequences have reported results that may help.
PRIMARY_SEQUENCE	apparent KD of MS2 coat protein, nM
ACUCUUCCUGUUAGGAUAUGCAUCGGGCUUCCGCAGCAGAAGGAACAUGAGGAUCACCCAUGUCAAAUAAAAUC (Eterna round: R97, puzzle: Brourd's mod of Exclusion 4)	17.4
GCAGCAUAGUGUAAUAACACAAUACAUGAGGAUCACCCAUGUGAGGAUAUGGACUGGAUUACAGUCCAGAAGGCACAAAGCUGC [Zipper Style 2] (Eterna round: R96, puzzle: Exclusion NG 3)	21.1
UACAUGAGGAUCACCCAUGUUUUGUCGUGUAUGGUAUUUAUCUAGGAUAUCAAGUUAGUUAUUUAUGAGAAGGAGAAUAUUAAU [JMF's solution 29] (Eterna round: R96, puzzle: Exclusion NG 3)	39.4
AGCUAACGAACAGGAUAUCCAAAGCGAUAGCAGGGAGAAGGGUUCAGAACUUGAGGAUCACCCAAGUGGGCUGAGCUCGGGAAA [Mutated MS2 EX1.3] (Eterna round: R96, puzzle: Exclusion NG 1)	20.9

Now for another entry.
Q: Field: apparent KD of MS2 coat protein (MS2 coat protein). Entry: UUCACAUGGACAUAAGAUCACAUGAGGAUCACCCAUGUGAAUAACAAGCUUUUUGUUCGUCUUAUGUCCAAUAAUAG [Stov1/14-B2] (Eterna round: R97, puzzle: Sensor, turn-off variant 1)
Ans: 13.5
